Each entry below carries its recorded cell viability.
System: NOMO1
ASSAY TEXT: cell viability relative to DMSO control; higher = less cytotoxic
APPLIED CONDITIONS: RPMI 5 mM glucose + 10% FBS; 48 h; 1.71 µM
EXPERIMENTAL READOUT: cell viability

MOLECULE | RECORDED MEASUREMENT
Oc1ccc(-c2ccc(-c3cc(Nc4cccc(CNC5CC5)c4)[nH]n3)cc2)c(O)c1 | 96.7%
CN(C)CCOc1ccc(/C(=C(/CCCl)c2ccccc2)c2ccccc2)cc1 | 105%
Cc1cnc(Nc2ccc(CN3CCOCC3)cc2)nc1Nc1cccc([S+](=O)([O-])NC(C)(C)C)c1 | 68%
O=C(NCc1ccccc1)c1csc(Nc2ccncn2)n1 | 56.6%
N#C/C(=C1/Nc2ccccc2S1)c1ccnc(OCc2ccc(CN3CCOCC3)cc2)n1 | 101%
CCN(CC)CCCC(C)Nc1nc(C)cc(Nc2ccc3nc(C)cc(N)c3c2)n1 (centres undefined) | 110%
O=C(NCC1CCOCC1)c1cnc(Nc2ccc(Cl)cc2Cl)nc1C(F)(F)F | 126%
C1CN\2C[C@@H](\N=C2S1)C3=CC=CC=C3 | 90.8%
Oc1ccc([C@@H]2Oc3ccc(O)cc3[C@@H]3CCC[C@@H]32)cc1 | 89.7%
CC(C)Cn1cnc2c(N)nc3ccccc3c21 | 103%
CN(C)[C@@H](CCOc1cccc2ccccc12)c1ccccc1 | 113%
CC(C)(C)OC(=O)Nc1ccc(-c2cc(C(=O)NCCCCCCC(=O)NO)no2)cc1 | 80.8%
Oc1ccc2ccccc2c1SSc1c(O)ccc2ccccc12 | 107%
C[N+]1(C)[C@@H]2CC(OC(=O)C(O)(c3cccs3)c3cccs3)C[C@H]1[C@@H]1O[C@@H]12 (some centres undefined) | 87.8%
CC(C)CC(N(C)C)C1(c2ccc(Cl)cc2)CCC1 (centres undefined) | 116%
Cc1c(C(=O)c2cccc3ccccc23)c2cccc3c2n1[C@H](CN1CCOCC1)CO3 | 91%
COc1cc2c(Nc3ccc(Cl)c(Cl)c3F)ncnc2cc1OC[C@@H]1C[C@@H]2CN(C)C[C@@H]2C1 | 109%
CCCCc1nc2cc(/C=C/C(=O)NO)ccc2n1CCN(CC)CC | 85.9%
C[N]1C=C(C=N1)C2=CC=C3N=CC\4=C(N(C(=O)\C=C4)C5=CC6=C(CCN6C(=O)C=C)C=C5)C3=C2 | 88.8%
